test details: Molar enthalpy of transition or fusion
condition info: Crystal 1; DSC
Here the recorded Molar enthalpy of transition or fusion is given for each entry.
Enter your answer as a number in kcal/mol; do not include the unit.

Use these answered entries as a reference point.
CCCCC[N+]1(C)CCCCC1.[Br-] [1-methyl-1-pentylpiperidinium bromide]	2.11
CCCCC[N+]1(C)CCOCC1.[Br-] [4-methyl-4-pentylmorpholinium bromide]	1.94

Ask: Provide Molar enthalpy of transition or fusion value for the following compound: CCC[N+]1(C)CCOCC1.[Br-] [4-methyl-4-propylmorpholinium bromide]
Reply: 2.72

Ask: Provide Molar enthalpy of transition or fusion value for the following compound: CCCC[N+]1(C)CCOCC1.[Br-] [4-butyl-4-methylmorpholinium bromide]
Reply: 3.37
